The measured values listed here are drawn from paper PMC12416549.

- assay_target: T1, TNFR1 (Homo sapiens, UniProt P19438)
- T1 chain: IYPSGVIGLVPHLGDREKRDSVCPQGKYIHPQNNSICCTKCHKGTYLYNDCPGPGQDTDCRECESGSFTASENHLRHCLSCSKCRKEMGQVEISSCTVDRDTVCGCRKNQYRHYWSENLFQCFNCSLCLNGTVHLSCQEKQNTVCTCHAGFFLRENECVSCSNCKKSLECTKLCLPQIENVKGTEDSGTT
- assay_procedure: yeast display SC50
quantity: apparent Kd (screen) (nM)

1) K31I (designed binder) SMEEEVEKAAKEYEKKKKEAIEKHLEKLKAIDKEAAERFLKELEEAAKEYAKDEAKTMSEEEAKRRAKKYKEKVLLSELSEEEQKEIKEAEEKLVRTILKYVEEAAK	0.869

a: E78W (designed binder) SMEEEVEKAAKEYEKKKKEAIEKHLEKLKAKDKEAAERFLKELEEAAKEYAKDEAKTMSEEEAKRRAKKYKEKVLLSWLSEEEQKEIKEAEEKLVRTILKYVEEAAK
b: S77P (designed binder) SMEEEVEKAAKEYEKKKKEAIEKHLEKLKAKDKEAAERFLKELEEAAKEYAKDEAKTMSEEEAKRRAKKYKEKVLLPELSEEEQKEIKEAEEKLVRTILKYVEEAAK
c: T97C (designed binder) SMEEEVEKAAKEYEKKKKEAIEKHLEKLKAKDKEAAERFLKELEEAAKEYAKDEAKTMSEEEAKRRAKKYKEKVLLSELSEEEQKEIKEAEEKLVRCILKYVEEAAK
In: Order the records so the highest apparent Kd (screen) appears first and the lowest last. Labels, requested order.
Out: b, a, c
